- method_notes: Lipophilicity, Log P of the compound
- Type: physicochemical
- condition_set: octanol/water
metric_name: logP
A bare number is all that is needed in reply.

Look at this molecule and give its reported logP. CCCCCC/C=C\CCCCCCCC(=O)OCC1CSP(=O)(O)O1.CCN(CC)CC (racemic)
5.96
